System: SIRPα signalling induced by Raji cells
Assay protocol: Assay B: SIRPα signalling assay using Raji cells
Type: cell-based, human
Applied conditions: Homo sapiens, compounds of the invention, Table 4, read-out: Inhibition of SIRα signalling induced by Raji cells: IC50
Method: Bioassay reagent 1 of the PathHunter Bioassay detection kit (DiscoverX 93-0001) was added to each well of the plate using a multichannel pipette followed by a 15 min incubation at room temperature. […] The analysis of the data was performed using the luminescence signal generated by beta-galactosidase in the PathHunter reporter cell line. The luminescence measurement was done using a Pherastar Multi-Mode Reader.
Measurement name: IC50 (nM)
Form entry: value (nM) — number only.

Consider the following illustrative entries.
[
  {
    "Compound": "Cn1ccnc1-c1cncc(-c2cccc(C#N)c2N2CCC(c3nncn3C)CC2)c1 [compound 30]",
    "IC50 / nM": 135
  },
  {
    "Compound": "Cn1cnnc1C1(F)CCN(c2c(C#N)cccc2-c2ccnnc2)CC1 [compound 52]",
    "IC50 / nM": 67
  },
  {
    "Compound": "Cn1cnnc1C1(F)CCN(c2c(C#N)cccc2-c2cnc3nc(C(C)(C)C)cn3c2)CC1 [compound 71]",
    "IC50 / nM": 49
  },
  {
    "Compound": "Cn1cc2cc(-c3cccc(C#N)c3N3CCC(c4nncn4C)CC3)cnc2n1 [compound 22]",
    "IC50 / nM": 87
  },
  {
    "Compound": "Cn1cnnc1C1CCN(c2c(C#N)cccc2-c2cnc(F)c(OCc3ccccc3)c2)CC1 [compound 35]",
    "IC50 / nM": 51
  }
]

Challenge: Find the measured IC50 of Cn1cnnc1C1CCN(c2c(C#N)cccc2-c2cnc3c(c2)NCCO3)CC1 [compound 24] and report it.
Response given: 368

Challenge: Entry Cn1cnnc1C1(F)CCN(c2c(C#N)cccc2-c2cnc3nn(CC(F)(F)F)cc3c2)CC1 [Example 55] needs its IC50 filled in; supply it.
Response given: 38

Challenge: Provide measured IC50 value, entry: Cn1cnnc1C1CCN(c2c(C#N)cccc2-c2cnc3nnn(C)c3c2)CC1 [compound 40]
Response given: 214

====

Assay protocol: Assay C: permeability in CACO-2 cells
Format: in vitro ADME
Applied conditions: human, pH 7.2; Caco-2; compounds of the invention, Table 7
Measurement name: efflux ratio
Form rule: numeric answer, no unit written next to it.

[
  {
    "Compound": "Cc1cc(F)ncc1-c1cccc(C#N)c1N1CCC(F)(c2nncn2C)CC1 [compound 83]",
    "efflux ratio": 1.3
  }
]

Challenge: Tell me its efflux ratio given Cc1cc(C)n(-c2cncc(-c3cccc(C#N)c3N3CCC(c4nncn4C)CC3)c2)n1 [compound 51] as the entry.
Response given: 12.9

Challenge: Give efflux ratio for the following compound: Cn1cnnc1C1(F)CCN(c2c(C#N)cccc2-c2cnc3nn(C(F)(F)F)cc3c2)CC1 [compound 75]
Response given: 4

Challenge: Name the recorded efflux ratio of the item COC(=O)c1cncc(-c2cccc(C#N)c2N2CCC(c3nncn3C)CC2)c1 [compound 27] in your answer.
Response given: 13.4

====

System name: QPCT (Homo sapiens (Human), UniProt Q16769)
Sequence (Q16769 29-361): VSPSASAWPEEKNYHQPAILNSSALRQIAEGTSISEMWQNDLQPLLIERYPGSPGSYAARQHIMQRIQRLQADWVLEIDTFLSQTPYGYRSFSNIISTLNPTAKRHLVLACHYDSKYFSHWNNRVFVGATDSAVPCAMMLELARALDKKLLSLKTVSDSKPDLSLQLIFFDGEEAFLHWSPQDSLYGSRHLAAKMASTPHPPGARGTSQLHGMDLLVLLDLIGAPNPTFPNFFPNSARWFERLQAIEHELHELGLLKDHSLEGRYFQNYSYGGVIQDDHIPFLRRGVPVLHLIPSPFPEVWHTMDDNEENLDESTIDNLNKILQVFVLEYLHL
Assay protocol: Assay A: biochemical QPCT activity assay (MALDI-TOF MS)
Applied conditions: compounds of the invention, Table 2; read-out: Inhibition of QPCT: IC50
Method: QPCT or QPCTL dependent conversion of N-terminal glutamine to pyroglutamate of CD47 was monitored via MALDI-TOF MS. Test compounds were dissolved in 100% DMSO and serially diluted into clear 1,536-well microtiter plates. […] QPCT or QPCTL activity was monitored by calculating the ratio between product and internal standard signals followed by normalization to high (100% activity) and low (0% activity) controls. […]
Measurement name: IC50
Report field: quantity (unit follows the number).

[
  {
    "Molecule": "Cn1cnnc1C1(C)CCN(c2c(C#N)cccc2-c2ccc(F)nc2)CC1",
    "Measurement name": "IC50",
    "Result": "2 nM"
  },
  {
    "Molecule": "Cn1cnnc1C1CCN(c2c(C#N)cccc2-c2ccnnc2)CC1",
    "Measurement name": "IC50",
    "Result": "6 nM"
  },
  {
    "Molecule": "COc1cc(-c2cccc(C#N)c2N2CCC(F)(c3nncn3C)CC2)cnc1F",
    "Measurement name": "IC50",
    "Result": "3 nM"
  },
  {
    "Molecule": "Cn1cnnc1C1CCN(c2c(C#N)cccc2-c2cncc3cn(Cc4ccccc4)nc23)CC1",
    "Measurement name": "IC50",
    "Result": "88 nM"
  },
  {
    "Molecule": "Cn1cnnc1C1(F)CCN(c2c(C#N)cccc2-c2cnc3nn(C(C)(C)C)c(Cl)c3c2)CC1",
    "Measurement name": "IC50",
    "Result": "1 nM"
  },
  {
    "Molecule": "Cc1cc(F)ncc1-c1cccc(C#N)c1N1CCC(c2nncn2C)CC1",
    "Measurement name": "IC50",
    "Result": "12 nM"
  }
]

Challenge: Answer with reported IC50 of Cc1c(-c2cccc(C#N)c2N2CCC(c3nncn3C)CC2)cncc1-n1cccn1
Response given: 13 nM

Challenge: Respond only with IC50 recorded for Cn1cnnc1C1CCN(c2c(C#N)cccc2-c2cncc(F)c2)CC1
Response given: 77 nM

Challenge: Find the measured IC50 of Cn1nc2cc(-c3cccc(C#N)c3N3CCC(c4nncn4C)CC3)cnc2n1 and report it.
Response given: 26 nM

Challenge: Read off the recorded IC50 for CC(C)Oc1cc(-c2cccc(C#N)c2N2CCC(c3nncn3C)CC2)cnc1F
Response given: 9 nM

Challenge: Quickly give me recorded IC50 for Cn1cnnc1C1(F)CCN(c2c(C#N)cccc2-c2cnc3ncccc3c2)CC1
Response given: 13 nM

Challenge: Answer with the recorded IC50 of Cn1cnnc1C1CCN(c2c(C#N)cccc2-c2cnc3c(c2)OCO3)CC1 only.
Response given: 84 nM

Challenge: Quote IC50 reported for COc1cc(-c2cccc(C#N)c2N2CCC(c3nncn3C)CC2)cnc1F please.
Response given: 9 nM

Challenge: Return reported IC50. Input molecule: Cn1cnnc1C1CCN(c2c(C#N)cccc2-c2cncc(CO)c2)CC1
Response given: 38 nM

Challenge: Could you please provide reported IC50 for Cn1cnnc1C1CCN(c2c(C#N)cccc2-c2cncc(C3CCCCO3)c2)CC1 (stereo not drawn) ? Thanks!
Response given: 29 nM

Challenge: Given the molecule Cn1cnnc1C1(F)CCN(c2c(C#N)cccc2-c2cnn3nc(-c4cccc(Cl)c4)ccc23)CC1 , write its reported IC50.
Response given: 3 nM

Challenge: Let me know recorded IC50 for Cn1cnnc1C1CCN(c2c(C#N)cccc2-c2cnsc2)CC1 , thanks.
Response given: 51 nM

Challenge: Assign IC50 to the following record: COc1cncc(-c2cccc(C#N)c2N2CCC(c3nncn3C)CC2)c1
Response given: 86 nM

====

System name: QPCT (Homo sapiens (Human), UniProt Q16769)
Assay protocol: Assay A: biochemical QPCT activity assay (MALDI-TOF MS)
Applied conditions: compounds of the invention, Table 2; read-out: Inhibition of QPCT: IC50
Consider the following compounds and their measured IC50 readings.
Report as a plain number; the unit nM is understood.

[
  {
    "Compound": "Cn1cnnc1C1CCN(c2c(C#N)cccc2-c2cncc(C(N)=O)c2)CC1 [compound 14]",
    "IC50, nM": 21
  },
  {
    "Compound": "Cc1cc(-c2cccc(C#N)c2N2CCC(F)(c3nncn3C)CC2)cnc1F [compound 82]",
    "IC50, nM": 3
  }
]

Challenge: Report measured IC50; entry is Cn1cnnc1C1CCN(c2c(C#N)cccc2-c2cnc3c(c2)CCCO3)CC1 [compound 12]
Response given: 57

====

Overview of recorded Permeability A-B for various compounds
Test system: Caco-2 cells
Assay protocol: Assay C: permeability in CACO-2 cells
Type: in vitro ADME
Applied conditions: Caco-2, apical to basolateral; prior art compounds, Table 8

These recorded examples may help you get a feel for the data.
[
  {
    "Compound": "Cn1cnnc1C1CCN(c2ncccc2-c2cccnc2)CC1 [SEN180, reference compound]",
    "Permeability A-B": "4.2 10^−6 cm/s"
  },
  {
    "Compound": "Cn1cnnc1C1CCN(c2c(C#N)cccc2-c2cncc(-n3cccn3)c2)CC1 [compound 6, reference compound]",
    "Permeability A-B": "0.2 10^−6 cm/s"
  },
  {
    "Compound": "Cn1cnnc1C1CCN(c2ncccc2-c2ccc(F)nc2)CC1 [SEN177, reference compound]",
    "Permeability A-B": "11.0 10^−6 cm/s"
  }
]

Challenge: Report measured Permeability A-B on Caco-2 cells; entry: Nc1ncc(C2CCN(c3ncccc3-c3ccc(F)nc3)CC2)s1 [compound 1094, reference compound]
Response given: 68 10^−6 cm/s

Challenge: Tell me Permeability A-B of Nc1nnc(C2CCN(c3ncccc3-c3ccc(F)nc3)CC2)s1 [compound 1095, reference compound] when tested on Caco-2 cells.
Response given: 73 10^−6 cm/s

Challenge: # return Permeability A-B for COCCOc1ncc(-c2cccc(C#N)c2N2CCC(c3nncn3C)CC2)cn1 [compound 3, reference compound] , test system: Caco-2 cells
Response given: 93 10^−6 cm/s

Values were extracted from patent US20240246981A1.
